Tested on: Trypanosoma brucei
protocol.text: Inhibition of Trypanosoma brucei DPMS expressed in Escherichia coli assessed as residual enzyme activity at 1 mM relative to untreated control
recorded.endpoint: Activity (%)
Reply numerically in %, unit not repeated.

Data request, read-out Activity, for C#Cc1ccc(/C=C2\SC(=S)N(CC(=O)O)C2=O)cc1
94

// returns reported Activity for input O=C(O)CN1C(=O)/C(=C/c2ccccc2O)SC1=S
23

Please give the measured Activity for this molecule: O=C(O)CN1C(=O)/C(=C/c2ccc(OCc3ccccc3)c(OCc3ccccc3)c2)SC1=S
20

# get_value(readout='Activity', item= O=C(O)CN1C(=O)/C(=C/c2ccc(Cl)cc2)SC1=S )
86

Return reported Activity; argument: N#Cc1ccc(/C=C2\SC(=S)N(CC(=O)O)C2=O)cc1
73

For O=C(O)CN1C(=O)/C(=C/c2ccc(O)cc2)SC1=S , what is its reported Activity?
70

Data request, read-out Activity, for O=C(O)CN1C(=O)/C(=C/c2ccc(OCc3ccccc3)cc2)SC1=S
10

Given the molecule O=C(O)CN1C(=O)/C(=C/c2cccc(O)c2)SC1=S , what is its reported Activity?
90

Name the reported Activity value associated with the molecule O=C(O)CN1C(=O)/C(=C/c2ccccc2)SC1=S
42

What value of Activity has been recorded for this entry: O=C(O)CN1C(=O)/C(=C/c2cccc(OCc3ccccc3)c2)SC1=S
23
